PROTOCOL_NOTES: Acute toxicity in mice
RECORDED_CONDITIONS: mouse, in vivo, sc.
ASSAY_METRIC: LD50

// solved cases for LD50 follow
compound="COC1CC(N)C(OC2OC(C(C)N)CCC2N)C(O)C1N(C)C(=O)CN (stereo not shown)" assay_metric=LD50 assay_result="200 to 400 mg/kg"
compound="CNC1C(OC)CC(N)C(OC2OC(C(C)N)CCC2N)C1O (stereo not shown)" assay_metric=LD50 assay_result="> 1000 mg/kg"
compound="COC1CC(N)C(OC2OC(C(C)N)CCC2N)C(O)C1N(C)C(=O)CNC=O (stereo not shown)" assay_metric=LD50 assay_result="> 800 mg/kg"

The value of LD50 measured for the compound COC1CC(N)C(OC2OC(C(C)N)CCC2N)C(O)C1N(C)C(=O)CNC(N)=O (stereo not shown) turned out to be > 800 mg/kg

###

PROTOCOL_NOTES: Solubility
Assay type: physicochemical
RECORDED_CONDITIONS: in chloroform, ethyl acetate, diethyl ether, hexane and petroleum ether
ASSAY_METRIC: Solubility

molecule="COC1CC(N)C(OC2OC(C(C)N)CCC2N)C(O)C1N(C)C(=O)CNC=O (stereo not shown)" assay_metric=Solubility assay_result=insoluble
molecule="COC1CC(N)C(OC2OC(C(C)N)CCC2N)C(O)C1N(C)C(=O)CNC(N)=O (stereo not shown)" assay_metric=Solubility assay_result=insoluble
molecule="CNC1C(OC)CC(N)C(OC2OC(C(C)N)CCC2N)C1O (stereo not shown)" assay_metric=Solubility assay_result=insoluble

###

Please provide measured LD50 for the entries that follow.
PROTOCOL_NOTES: Acute toxicity in mice
RECORDED_CONDITIONS: mouse, in vivo, iv.

compound="CNC1C(OC)CC(N)C(OC2OC(C(C)N)CCC2N)C1O (stereo not shown)" assay_result="> 400 mg/kg"
compound="COC1CC(N)C(OC2OC(C(C)N)CCC2N)C(O)C1N(C)C(=O)CNC(N)=O (stereo not shown)" assay_result="> 200 mg/kg"
compound="COC1CC(N)C(OC2OC(C(C)N)CCC2N)C(O)C1N(C)C(=O)CN (stereo not shown)" assay_result="50 to 100 mg/kg"

Attention now turns to another entry.
LD50 reported for this compound COC1CC(N)C(OC2OC(C(C)N)CCC2N)C(O)C1N(C)C(=O)CNC=O (stereo not shown) : > 200 mg/kg

###

PROTOCOL_NOTES: Solubility
Type: physicochemical
RECORDED_CONDITIONS: in methanol
ASSAY_METRIC: Solubility

molecule="COC1CC(N)C(OC2OC(C(C)N)CCC2N)C(O)C1N(C)C(=O)CNC(N)=O (stereo not shown)" assay_result="easily soluble"
molecule="COC1CC(N)C(OC2OC(C(C)N)CCC2N)C(O)C1N(C)C(=O)CNC=O (stereo not shown)" assay_result="easily soluble"
molecule="CNC1C(OC)CC(N)C(OC2OC(C(C)N)CCC2N)C1O (stereo not shown)" assay_result="easily soluble"
